- Tested on: FADD−/− Jurkat cells
- assay details: Necroptosis inhibition assay, TNF-α-induced necroptosis (CellTiter-Glo 2.0)
- Assay type: cell-based, human
- conditions used: compound 10 μM; TNF-α 15 ng/mL, FADD−/− Jurkat cells
Reported Necroptosis inhibition assay (Rescue %) 10 μM values follow for various molecules
Please give a number only; it is taken to be in %.

Nc1ncc(-c2cnn(C3CCN(CCC4CCN(C5CC6(CCN(C(=O)Cc7cccc(NC8=CC(=O)N(C9CCC(=O)NC9=O)C8=O)c7)CC6)C5)CC4)CC3)c2)nc1C(=O)O[C@@H](C(=O)Nc1ccc(F)cc1)c1ccccc1 (stereo partly drawn) [TDH-509] = 5.55
Nc1ncc(-c2cnn(C3CCN(CCCC4CCN(c5ccc6c(c5)C(=O)N(C5CCC(=O)NC5=O)C6=O)CC4)CC3)c2)nc1C(=O)O[C@@H](C(=O)Nc1ccc(F)cc1)c1ccccc1 (stereo partly drawn) [TDH-481] = 9.86

Sample Nc1ncc(-c2cnn(C3CCN(CCCN4CCN(C(=O)c5ccc6c(c5)CN(C5CCC(=O)NC5=O)C6=O)CC4)CC3)c2)nc1C(=O)O[C@@H](C(=O)Nc1ccc(F)cc1)c1ccccc1 (stereo partly drawn) [TDH-530] , system: FADD−/− Jurkat cells. Its Necroptosis inhibition assay (Rescue %) 10 μM is 30.78
